Cited source for all entries: PubChem BioAssay (NCI)

# experiment_description: NCI Yeast Anticancer Drug Screen. Data for the rad14 strain (AID 159);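 note: 0% = growth of vehicle-treated control cultures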
# condition_description: S. cerevisiae rad14 strain growth inhibition; at 3.7 µM; hits give high values
About 79,000 compounds went through this panel and 15% of them were active in at least one assay; those are over-represented in the sample as a whole.
endpoint: growth inhibition (%)

compound="COc1cc([C@@H]2c3cc4c(cc3C[C@@H]3COC(=O)C32)OCO4)cc(OC)c1O (stereo not given in full)" reading_unit=% recorded_result=8
compound="C/C(CCl)=N/NC1=NC(c2ccccc2Cl)P(=O)(NCCCNP2(=O)SC(N/N=C(/C)CCl)=NC2c2ccccc2Cl)S1 (stereo not given)" reading_unit=% recorded_result=-1
compound=CSC(=Nc1ccccc1)N(c1ccccc1)c1nc(=[N+](C)C)ss1 reading_unit=% recorded_result=7
compound="C[N+](C)(C)CC1CCCC(C[N+](C)(C)C)C1=O (stereo not given)" reading_unit=% recorded_result=0
compound=CC1=C(N2CC2)C(=O)c2ccccc2C1=O reading_unit=% recorded_result=3
